tested on: A549; test: Antiinflammatory activity in human A549 cells assessed as inhibition of TNF-alpha-induced ICAM1 induction incubated for 1 hr prior to TNFalpha challenge measured after 6 hrs; format: functional, cell-based
pIC50: −log10 of the molar value.
Measured pIC50, listed per entry for reference.
Test readout: pIC50

In [3]: df
Out[3]:
                                   compound  obs_value
0  C=C1C(=O)OC[C@H]1C(c1cc(OC)c(O)c(OC)c1)c1cc(OC)c2c(c1)OCO2 (some centres undefined)       5.50
1  COc1cc(C(c2cc(OC)c(OC)c(OC)c2)[C@@H]2COC(=O)[C@H]2C)cc(OC)c1OC [PEPEROMIN C]       3.90
2  COc1cc(C(c2cc(OC)c(OC)c(OC)c2)[C@@H]2COC(=O)[C@H]2C)cc(OC)c1O (some centres undefined)       4.54
3  COc1cc(C(c2cc(OC)c(OC)c(OC)c2)[C@@H]2COC(=O)[C@H]2C)cc(O)c1OC (some centres undefined)       4.22
